As shown below, each of these molecules has a reported LC50 value.
System: Nematode eggs
Assay: Plant pathogenic nematode inhibition test by dipping: nematode egg hatch inhibition (NY/T 1154.5-2006)
Format: in vivo
Details: Test object: nematode eggs; dipping

>  <MOLECULE>
O=C1CC(C(=O)OCCC(F)=C(F)F)C(c2ccccc2Cl)O1 (stereo not drawn)

>  <LC50>
12.81 µg/mL

$$$$
>  <MOLECULE>
Cc1ccc(C2OC(=O)CC2C(=O)OCCC=C(F)F)cc1 (stereo not drawn)

>  <LC50>
10.01 µg/mL

$$$$
>  <MOLECULE>
O=C1CC(C(=O)OCCC(F)=C(F)F)C(c2cc(F)cc(Cl)c2)O1 (stereo not drawn)

>  <LC50>
10.91 µg/mL

$$$$
>  <MOLECULE>
O=C1CC(C(=O)OCCC(F)=C(F)F)C(c2cccc(F)c2)O1 (stereo not drawn)

>  <LC50>
7.85 µg/mL

$$$$
>  <MOLECULE>
O=C1CC(C(=O)OCCC(F)=C(F)F)C(c2ccc(Br)cc2F)O1 (stereo not drawn)

>  <LC50>
13.91 µg/mL

$$$$
>  <MOLECULE>
COc1ccccc1C1OC(=O)CC1C(=O)OCCC=C(F)F (stereo not drawn)

>  <LC50>
12.42 µg/mL

$$$$

###

System: Nematode J2
Assay: Plant pathogenic nematode inhibition test by dipping: second-stage juveniles
Assay type: in vivo
Details: in vivo
Each record here notes measured LC50.

>  <COMPOUND>
O=C1CC(C(=O)OCCC(F)=C(F)F)C(c2ccc(Cl)cc2Cl)O1 (stereo not shown)

>  <READING UNIT>
µg/mL

>  <LC50>
13.14

$$$$
>  <COMPOUND>
CCOc1ccccc1C1OC(=O)CC1C(=O)OCCC(F)=C(F)F (stereo not shown)

>  <READING UNIT>
µg/mL

>  <LC50>
13.35

$$$$
>  <COMPOUND>
COc1ccccc1C1OC(=O)CC1C(=O)OCCC(F)=C(F)F (stereo not shown)

>  <READING UNIT>
µg/mL

>  <LC50>
11.67

$$$$
>  <COMPOUND>
O=C1CC(C(=O)OCCC(F)=C(F)F)C(c2ccc(C(F)(F)F)cc2F)O1 (stereo not shown)

>  <READING UNIT>
µg/mL

>  <LC50>
13.23

$$$$
>  <COMPOUND>
COc1ccc(C2OC(=O)CC2C(=O)OCCC=C(F)F)cc1 (stereo not shown)

>  <READING UNIT>
µg/mL

>  <LC50>
13.40

$$$$
>  <COMPOUND>
O=C1CC(C(=O)OCCC=C(F)F)C(c2ccccc2)O1 (stereo not shown)

>  <READING UNIT>
µg/mL

>  <LC50>
12.24

$$$$
>  <COMPOUND>
CCc1ccc(C2OC(=O)CC2C(=O)OCCC=C(F)F)cc1 (stereo not shown)

>  <READING UNIT>
µg/mL

>  <LC50>
10.24

$$$$
>  <COMPOUND>
O=C1CC(C(=O)OCCC(F)=C(F)F)C(c2cc(F)cc(Br)c2)O1 (stereo not shown)

>  <READING UNIT>
µg/mL

>  <LC50>
10.85

$$$$
>  <COMPOUND>
O=C1CC(C(=O)OCCC(F)=C(F)F)C(c2ccc(F)c(Cl)c2)O1 (stereo not shown)

>  <READING UNIT>
µg/mL

>  <LC50>
11.24

$$$$
>  <COMPOUND>
O=C1CC(C(=O)OCCC(F)=C(F)F)C(c2cc(F)ccc2F)O1 (stereo not shown)

>  <READING UNIT>
µg/mL

>  <LC50>
15.07

$$$$
>  <COMPOUND>
O=C1CC(C(=O)OCCC=C(F)F)C(c2ccccc2C(F)(F)F)O1 (stereo not shown)

>  <READING UNIT>
µg/mL

>  <LC50>
12.35

$$$$
>  <COMPOUND>
O=C1CC(C(=O)OCCC(F)=C(F)F)C(c2cc(Cl)cc(Cl)c2Cl)O1 (stereo not shown)

>  <READING UNIT>
µg/mL

>  <LC50>
13.35

$$$$
>  <COMPOUND>
N#Cc1ccc(C2OC(=O)CC2C(=O)OCCC(F)=C(F)F)cc1 (stereo not shown)

>  <READING UNIT>
µg/mL

>  <LC50>
11.35

$$$$
>  <COMPOUND>
COc1ccc(C2OC(=O)CC2C(=O)OCCC(F)=C(F)F)cc1 (stereo not shown)

>  <READING UNIT>
µg/mL

>  <LC50>
13.40

$$$$
>  <COMPOUND>
O=C1CC(C(=O)OCCC(F)=C(F)F)C(c2cc(Br)cc(Br)c2)O1 (stereo not shown)

>  <READING UNIT>
µg/mL

>  <LC50>
12.47

$$$$
>  <COMPOUND>
Cc1ccc(Oc2ccccc2C2OC(=O)CC2C(=O)OCCC(F)=C(F)F)cc1 (stereo not shown)

>  <READING UNIT>
µg/mL

>  <LC50>
12.35

$$$$
>  <COMPOUND>
O=C1CC(C(=O)OCCC(F)=C(F)F)C(c2ccc(Cl)cc2F)O1 (stereo not shown)

>  <READING UNIT>
µg/mL

>  <LC50>
13.74

$$$$
>  <COMPOUND>
O=C1CC(C(=O)OCCC(F)=C(F)F)C(c2ccc(Oc3ccc(F)cc3)cc2)O1 (stereo not shown)

>  <READING UNIT>
µg/mL

>  <LC50>
15.36

$$$$
>  <COMPOUND>
O=C1CC(C(=O)OCCC=C(F)F)C(c2ccccc2OC(F)(F)F)O1 (stereo not shown)

>  <READING UNIT>
µg/mL

>  <LC50>
13.40

$$$$

###

Test system: Nematode J2
Experiment: Plant pathogenic nematode inhibition test by dipping: second-stage juveniles
Assay type: in vivo
Settings: Test object: nematode J2 (second-stage juveniles); dipping
EXPERIMENTAL READOUT: LC50

>  <COMPOUND>
Cc1ccc(C2OC(=O)CC2C(=O)OCCC=C(F)F)cc1 (stereo not drawn)

>  <RESULT>
10.23 µg/mL

$$$$
>  <COMPOUND>
COc1ccccc1C1OC(=O)CC1C(=O)OCCC=C(F)F (stereo not drawn)

>  <RESULT>
13.10 µg/mL

$$$$
>  <COMPOUND>
O=C1CC(C(=O)OCCC(F)=C(F)F)C(c2ccccc2Cl)O1 (stereo not drawn)

>  <RESULT>
13.25 µg/mL

$$$$
>  <COMPOUND>
O=C1CC(C(=O)OCCC(F)=C(F)F)C(c2cccc(F)c2)O1 (stereo not drawn)

>  <RESULT>
8.91 µg/mL

$$$$
>  <COMPOUND>
O=C1CC(C(=O)OCCC(F)=C(F)F)C(c2cc(F)cc(Cl)c2)O1 (stereo not drawn)

>  <RESULT>
12.24 µg/mL

$$$$
>  <COMPOUND>
O=C1CC(C(=O)OCCC(F)=C(F)F)C(c2ccc(Br)cc2F)O1 (stereo not drawn)

>  <RESULT>
15.74 µg/mL

$$$$

###

Test system: Nematode J2
Test: Plant pathogenic nematode inhibition test by dipping: second-stage juveniles
Assay type: in vivo
Conditions: in vivo

>  <MOLECULE>
COc1c(F)cc(C2OC(=O)CC2C(=O)OCCC(F)=C(F)F)cc1F (stereo not drawn)

>  <LC50 [µg/mL]>
13.37

$$$$
>  <MOLECULE>
O=C1CC(C(=O)OCCC(F)=C(F)F)C(c2ccccc2C(F)(F)F)O1 (stereo not drawn)

>  <LC50 [µg/mL]>
11.24

$$$$
>  <MOLECULE>
O=C1CC(C(=O)OCCC(F)=C(F)F)C(c2cccc([N+](=O)[O-])c2)O1 (stereo not drawn)

>  <LC50 [µg/mL]>
14.23

$$$$
>  <MOLECULE>
O=C1CC(C(=O)OCCC=C(F)F)C(c2cc(C(F)(F)F)cc(C(F)(F)F)c2)O1 (stereo not drawn)

>  <LC50 [µg/mL]>
12.24

$$$$
>  <MOLECULE>
Nc1ccccc1C1OC(=O)CC1C(=O)OCCC(F)=C(F)F (stereo not drawn)

>  <LC50 [µg/mL]>
13.24

$$$$
>  <MOLECULE>
O=C1CC(C(=O)OCCC(F)=C(F)F)C(c2c(F)c(F)c(F)c(F)c2F)O1 (stereo not drawn)

>  <LC50 [µg/mL]>
13.86

$$$$
>  <MOLECULE>
Nc1ccc(C2OC(=O)CC2C(=O)OCCC(F)=C(F)F)cc1 (stereo not drawn)

>  <LC50 [µg/mL]>
10.06

$$$$
>  <MOLECULE>
O=C1CC(C(=O)OCCC(F)=C(F)F)C(c2c(F)cccc2Cl)O1 (stereo not drawn)

>  <LC50 [µg/mL]>
12.25

$$$$
>  <MOLECULE>
COc1ccc(C2OC(=O)CC2C(=O)OCCC(F)=C(F)F)c(C(F)(F)F)c1 (stereo not drawn)

>  <LC50 [µg/mL]>
10.40

$$$$
